target: mouse CRF receptor, type 2β (mouse) (UniProt Q60748); assay: SPA competition with 0.05 nM [125I-Tyr0]Svg, HEK-293 membranes; 95% CI (0.56-1.1)
Ends that are not written are not given here.

binder	IC50, nM
QGPPISIDLSLELLRKMIEIARAEKEKQQAANNRLLLDTI (ends and bridges not checked) [[Ala^21,23Arg^22]Svg]	0.82
